Molecular target: Lysine-specific demethylase 5B (Homo sapiens) (UniProt Q9UGL1)
Sequence (Q9UGL1 whole entry, looked up): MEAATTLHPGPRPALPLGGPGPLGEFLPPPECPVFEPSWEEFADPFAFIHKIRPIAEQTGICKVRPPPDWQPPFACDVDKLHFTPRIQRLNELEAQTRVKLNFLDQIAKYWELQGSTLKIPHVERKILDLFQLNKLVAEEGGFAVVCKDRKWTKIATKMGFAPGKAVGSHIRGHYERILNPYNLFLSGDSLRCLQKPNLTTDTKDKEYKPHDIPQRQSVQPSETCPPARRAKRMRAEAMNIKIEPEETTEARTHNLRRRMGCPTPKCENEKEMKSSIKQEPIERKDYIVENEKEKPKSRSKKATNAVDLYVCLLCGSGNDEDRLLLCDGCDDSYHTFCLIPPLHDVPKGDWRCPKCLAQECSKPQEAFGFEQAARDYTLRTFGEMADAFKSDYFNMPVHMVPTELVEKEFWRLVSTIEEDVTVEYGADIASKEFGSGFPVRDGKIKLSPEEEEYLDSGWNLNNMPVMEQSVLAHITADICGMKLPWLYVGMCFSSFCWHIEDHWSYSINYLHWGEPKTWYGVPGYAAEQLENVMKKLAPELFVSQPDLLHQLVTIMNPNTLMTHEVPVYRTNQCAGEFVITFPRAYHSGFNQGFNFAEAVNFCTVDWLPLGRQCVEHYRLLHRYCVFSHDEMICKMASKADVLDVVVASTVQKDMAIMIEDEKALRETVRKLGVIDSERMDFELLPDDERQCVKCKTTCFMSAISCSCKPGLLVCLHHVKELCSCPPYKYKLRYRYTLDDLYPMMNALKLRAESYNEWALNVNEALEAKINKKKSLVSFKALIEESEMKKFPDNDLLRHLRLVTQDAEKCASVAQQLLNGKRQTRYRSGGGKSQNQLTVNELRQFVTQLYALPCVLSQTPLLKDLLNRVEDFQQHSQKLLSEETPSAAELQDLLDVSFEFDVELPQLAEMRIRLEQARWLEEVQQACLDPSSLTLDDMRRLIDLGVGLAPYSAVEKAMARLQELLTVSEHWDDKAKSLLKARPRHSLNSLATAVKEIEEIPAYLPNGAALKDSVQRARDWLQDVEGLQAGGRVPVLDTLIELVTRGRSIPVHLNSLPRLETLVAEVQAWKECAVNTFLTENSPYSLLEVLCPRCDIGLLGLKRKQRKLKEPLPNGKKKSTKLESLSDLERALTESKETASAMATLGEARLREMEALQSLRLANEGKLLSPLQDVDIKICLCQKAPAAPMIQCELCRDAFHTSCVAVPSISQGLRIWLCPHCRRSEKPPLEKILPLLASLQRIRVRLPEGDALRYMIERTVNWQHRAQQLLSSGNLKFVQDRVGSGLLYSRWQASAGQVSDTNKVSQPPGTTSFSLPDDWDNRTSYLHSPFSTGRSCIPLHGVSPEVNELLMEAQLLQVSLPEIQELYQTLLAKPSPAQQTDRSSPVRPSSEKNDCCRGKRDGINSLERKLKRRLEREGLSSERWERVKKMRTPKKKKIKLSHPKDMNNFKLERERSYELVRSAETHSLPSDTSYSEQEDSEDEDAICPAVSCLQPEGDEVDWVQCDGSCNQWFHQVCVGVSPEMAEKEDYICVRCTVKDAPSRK
Test: Optimization screen for KDM5B Histone Demethylases FDH coupled qHTS against the LOPAC library (AID 1347166)
Details: KDM5B demethylation, FDH-coupled NADH fluorescence (FDH is formaldehyde dehydrogenase); series mostly up to 57.5 µM
Records with an inconclusive call do not appear. Active and inactive are the calls of the source. Calls follow the shape of the dose curve; as a rule, active = well fitted inhibition curve with a large enough effect; inconclusive = small, poorly fitted or top-dose-only effect; inactive = flat fitted curve, though single readings scatter.

compound: NCCCS(=O)(=O)O
outcome: inactive

compound: NC(=S)c1ccc[n+]([C@@H]2O[C@@H](COP(=O)([O-])OP(=O)(O)OC[C@H]3O[C@@H](n4cnc5c(N)ncnc54)[C@H](OP(=O)(O)O)[C@@H]3O)C(O)C2O)c1 (stereo partly specified)
outcome: inactive

compound: COc1cc(C(O)CO)ccc1OS(=O)(=O)O (stereo unspecified)
outcome: inactive

compound: O=C1/C(=C/c2ccsc2)CC/C1=C\c1cccs1
outcome: inactive

compound: O=c1[nH]c2cc(C(F)(F)F)ccc2n1-c1cc(C(F)(F)F)ccc1O
outcome: inactive

compound: NCC1OC(O[C@H]2[C@H](O)[C@@H](OC3C(O)C(N)CC(N)C3OC3OC(CO)C(O)C(O)C3N)O[C@@H]2CO)C(N)C(O)C1O (stereo partly specified)
outcome: inactive

Provenance of the data: PubChem BioAssay (NCATS)
